# test target: CDK8/Cyclin C (Homo sapiens)
# procedure text: Inhibition of CDK8/cyclin C (unknown origin) using RBER-IRStide as substrate incubated for 60 mins in presence of [gamma33P]ATP by scintillation counting method
readout name: Ki (nM)

## Input Value lookup for Ki; key = `COc1ccc(-c2cncc(Cl)c2N2CCC3(CCNC3=O)CC2)c2ccccc12`
## Output 26

## Input Value lookup for Ki; key = `O=C1NCCC12CCN(c1c(Cl)cncc1-c1c[nH]c3ncccc13)CC2`
## Output 50

I = Cn1cc(-c2ccc(-c3cncc(Cl)c3-n3ccc(C(=O)O)c3)cc2)cn1
II = O=C1NCCC12CCN(c1c(Cl)cncc1-c1cncc3ccccc13)CC2
## Input Hey, between I and II which has a smaller measured Ki? Your answer should be the label of the entry you select.
## Output II
(II: 66 nM, I: 4190 nM)

a = O=C1NCCC12CCN(c1c(Cl)cncc1-c1cccc3c1sc1ccccc13)CC2
b = O=C1NCCC12CCN(c1c(Cl)cncc1-c1cccc3ccncc13)CC2
## Input Which item exceeds the other in Ki, a or b ? Your answer should be the label of the entry you select.
## Output b
(b: 3140 nM, a: 24 nM)

###

Form field: GI50 at 72 h (one value per entry).
# procedure text: Growth inhibition human WI38 cells after 72 hrs by resazurin or MTT assay
# Format: cell-based
# cond: WI-38 cells
Entry rule: numbers only, all in µM.

## Input Value lookup for GI50 at 72 h; key = `O=C1NCCC12CCN(c1c(Cl)cncc1-c1cc3ccccc3o1)CC2`
## Output 48.1

Now for the compound whose GI50 at 72 h we want.
## Input Value lookup for GI50 at 72 h; key = `O=C1NCCC12CCN(c1c(Cl)cncc1-c1cc3ccccc3s1)CC2`
## Output 35

###

# procedure text: Volume of distribution at steady state in Sprague-Dawley rat at 5 mg/kg, iv measured up to 24 hrs by LC-MS/MS analysis
# Type: ADME, organism-based
# cond: in vivo, read-out: Vdss
readout name: Vd (L/kg)
Entry rule: numbers only, all in L/kg.

## Input Value lookup for Vd; key = `O=C1NCCC12CCN(c1c(Cl)cncc1-c1cc3ccccc3o1)CC2`
## Output 1.11

Next:
## Input Value lookup for Vd; key = `Cn1cc(-c2ccc(-c3cncc(Cl)c3N3CCC4(CCNC4=O)CC3)cc2)cn1`
## Output 1.38

###

# procedure text: Cmax in BALB/c mouse at 10 mg/kg, po measured up to 24 hrs by LC-MS/MS analysis
# cond: in vivo
readout name: Cmax (µM)
Entry rule: numbers only, all in µM.

## Input Value lookup for Cmax; key = `O=C1NCCC12CCN(c1c(Cl)cncc1-c1cc3ccccc3o1)CC2`
## Output 5.01

###

# procedure text: Tmax in BALB/c mouse at 2 mg/kg, iv measured up to 24 hrs by LC-MS/MS analysis
# cond: in vivo
readout name: Tmax (min)
Entry rule: numbers only, all in min.

## Input Value lookup for Tmax; key = `O=C1NCCC12CCN(c1c(Cl)cncc1-c1cc3ccccc3o1)CC2`
## Output 2.4

###

Form field: Cmax (one value per entry).
# procedure text: Cmax in Sprague-Dawley rat at 20 mg/kg, po measured up to 24 hrs by LC-MS/MS analysis
# Assay type: ADME, organism-based
# Parameters: route oral, dose 20 mg/kg, time <=24
# cond: in vivo
Entry rule: numbers only, all in µM.

## Input Value lookup for Cmax; key = `Cn1cc(-c2ccc(-c3cncc(Cl)c3N3CCC4(CCNC4=O)CC3)cc2)cn1`
## Output 4.06

Now for the compound whose Cmax we want.
## Input Value lookup for Cmax; key = `O=C1NCCC12CCN(c1c(Cl)cncc1-c1cc3ccccc3o1)CC2`
## Output 2.77

###

# procedure text: AUC in Sprague-Dawley rat at 5 mg/kg, iv measured up to 24 hrs by LC-MS/MS analysis
# Format: ADME, organism-based
# Parameters: route intravenous, dose 5 mg/kg, time <=24
# cond: in vivo
Form field: AUC at 24 h (one value per entry).
Entry rule: numbers only, all in µM·h.

## Input Value lookup for AUC at 24 h; key = `O=C1NCCC12CCN(c1c(Cl)cncc1-c1cc3ccccc3o1)CC2`
## Output 9.7

Now for the molecule whose AUC at 24 h we want.
## Input Value lookup for AUC at 24 h; key = `Cn1cc(-c2ccc(-c3cncc(Cl)c3N3CCC4(CCNC4=O)CC3)cc2)cn1`
## Output 10.5

###

# test target: Cyclin-dependent kinase 1/cyclin B1 (Homo sapiens, UniProt P06493)
# Sequence (P06493 whole entry): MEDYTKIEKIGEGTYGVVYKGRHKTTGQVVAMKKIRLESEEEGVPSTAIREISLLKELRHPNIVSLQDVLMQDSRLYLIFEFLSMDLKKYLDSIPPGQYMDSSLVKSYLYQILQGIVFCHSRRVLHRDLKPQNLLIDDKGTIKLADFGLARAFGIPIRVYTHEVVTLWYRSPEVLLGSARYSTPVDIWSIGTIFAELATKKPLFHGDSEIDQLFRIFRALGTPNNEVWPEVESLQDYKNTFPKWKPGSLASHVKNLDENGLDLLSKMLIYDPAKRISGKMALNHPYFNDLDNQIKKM
# Sequence (P14635 whole entry, further chain): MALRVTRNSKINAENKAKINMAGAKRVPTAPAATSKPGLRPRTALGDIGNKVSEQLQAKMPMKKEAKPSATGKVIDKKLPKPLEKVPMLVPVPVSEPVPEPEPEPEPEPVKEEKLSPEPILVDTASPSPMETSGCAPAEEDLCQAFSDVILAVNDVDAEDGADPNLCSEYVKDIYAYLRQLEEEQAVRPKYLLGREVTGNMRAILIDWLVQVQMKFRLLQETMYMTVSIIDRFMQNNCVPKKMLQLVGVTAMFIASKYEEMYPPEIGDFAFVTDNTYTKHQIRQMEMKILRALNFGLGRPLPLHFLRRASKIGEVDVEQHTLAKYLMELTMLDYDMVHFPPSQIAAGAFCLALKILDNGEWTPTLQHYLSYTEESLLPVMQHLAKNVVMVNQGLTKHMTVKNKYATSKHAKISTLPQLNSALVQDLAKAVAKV
# procedure text: Inhibition of CDK1/cyclin-B (unknown origin)
readout name: Ki (nM)
Entry rule: numbers only, all in nM.

## Input Value lookup for Ki; key = `O=C1NCCC12CCN(c1c(Cl)cncc1-c1cc3ccccc3o1)CC2`
## Output 1890

###

Form field: Cmax (one value per entry).
# procedure text: Cmax in Sprague-Dawley rat at 5 mg/kg, iv measured up to 24 hrs by LC-MS/MS analysis
# Assay type: ADME, organism-based
# Design: route intravenous, dose 5 mg/kg, time <=24
# cond: in vivo
Entry rule: numbers only, all in µM.

## Input Value lookup for Cmax; key = `O=C1NCCC12CCN(c1c(Cl)cncc1-c1cc3ccccc3o1)CC2`
## Output 14.4

Now for the compound whose Cmax we want.
## Input Value lookup for Cmax; key = `Cn1cc(-c2ccc(-c3cncc(Cl)c3N3CCC4(CCNC4=O)CC3)cc2)cn1`
## Output 10.6

###

# test target: Glycogen synthase kinase-3 beta (Homo sapiens, UniProt P49841)
# Sequence (P49841 whole entry): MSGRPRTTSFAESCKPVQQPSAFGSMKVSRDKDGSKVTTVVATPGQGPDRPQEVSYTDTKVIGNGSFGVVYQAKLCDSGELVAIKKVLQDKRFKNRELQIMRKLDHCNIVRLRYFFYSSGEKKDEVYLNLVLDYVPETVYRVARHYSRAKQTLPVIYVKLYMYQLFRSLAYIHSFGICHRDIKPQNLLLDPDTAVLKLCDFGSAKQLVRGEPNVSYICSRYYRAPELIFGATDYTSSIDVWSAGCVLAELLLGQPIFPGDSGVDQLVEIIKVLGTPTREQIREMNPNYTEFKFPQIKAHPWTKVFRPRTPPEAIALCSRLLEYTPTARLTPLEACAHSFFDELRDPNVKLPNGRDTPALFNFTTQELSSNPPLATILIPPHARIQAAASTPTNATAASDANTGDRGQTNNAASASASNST
# procedure text: Inhibition of human GSKbeta H350L mutant (2 to 3nd residues) using YRRAAVPPSPSLSRHSSPHQS(p) EDEEE as substrate incubated for 40 mins in presence of [gamma-33P]-ATP by scintillation counting method
readout name: pKi
Please keep in mind that pKi is minus log10 of the molar concentration; only the number is needed.

Previously resolved entries follow.
## Input Value lookup for pKi; key = `Cn1cc(-c2ccc(-c3cncc(Cl)c3N3CCC4(CCNC4=O)CC3)cc2)cn1`
## Output 6.46

## Input Value lookup for pKi; key = `O=C1NCCC12CCN(c1c(Cl)cncc1-c1cc3ccccc3o1)CC2`
## Output 8.40

Next:
## Input Value lookup for pKi; key = `O=C1NCCC12CCN(c1c(Cl)cncc1-c1cc3ccccc3s1)CC2`
## Output 7.74

###

# procedure text: Half life in BALB/c mouse at 2 mg/kg, iv measured up to 24 hrs by LC-MS/MS analysis
# cond: in vivo
readout name: half-life (min)
Entry rule: numbers only, all in min.

## Input Value lookup for half-life; key = `O=C1NCCC12CCN(c1c(Cl)cncc1-c1cc3ccccc3o1)CC2`
## Output 20.4

###

# test target: CDK8/Cyclin C (Homo sapiens, UniProt P49336)
# Sequence (P49336 whole entry): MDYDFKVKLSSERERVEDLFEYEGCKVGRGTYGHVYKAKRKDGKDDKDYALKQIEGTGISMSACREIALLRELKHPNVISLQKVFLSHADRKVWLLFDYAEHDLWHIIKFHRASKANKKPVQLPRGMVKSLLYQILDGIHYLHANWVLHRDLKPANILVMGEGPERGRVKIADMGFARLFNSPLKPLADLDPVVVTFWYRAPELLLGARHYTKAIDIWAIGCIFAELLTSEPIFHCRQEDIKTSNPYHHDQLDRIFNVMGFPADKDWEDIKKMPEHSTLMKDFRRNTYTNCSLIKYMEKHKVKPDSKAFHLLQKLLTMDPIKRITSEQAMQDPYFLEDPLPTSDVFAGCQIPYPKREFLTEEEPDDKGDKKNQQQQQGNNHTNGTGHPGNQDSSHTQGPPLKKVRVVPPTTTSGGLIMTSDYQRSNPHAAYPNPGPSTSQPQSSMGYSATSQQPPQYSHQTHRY
# Sequence (P24863 whole entry, further chain): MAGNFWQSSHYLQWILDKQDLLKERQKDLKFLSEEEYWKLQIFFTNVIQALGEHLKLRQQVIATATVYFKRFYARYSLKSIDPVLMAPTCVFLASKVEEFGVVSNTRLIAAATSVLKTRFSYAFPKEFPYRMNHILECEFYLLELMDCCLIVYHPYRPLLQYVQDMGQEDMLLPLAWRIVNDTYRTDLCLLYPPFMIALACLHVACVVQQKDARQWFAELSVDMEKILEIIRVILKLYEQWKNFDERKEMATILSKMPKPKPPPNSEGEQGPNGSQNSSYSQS
# procedure text: Inhibition of CDK8/cyclin C (unknown origin) using RBER-IRStide as substrate incubated for 60 mins in presence of [gamma33P]ATP by scintillation counting method
readout name: Ki (nM)

Previously resolved entries follow.
## Input Value lookup for Ki; key = `O=C1NCCC12CCN(c1c(Cl)cncc1-c1cc3ccccc3[nH]1)CC2`
## Output 156

## Input Value lookup for Ki; key = `Cn1cc(-c2ccc(-c3cncc(Cl)c3N3CCC4(CCNC4=O)CC3)cc2)cn1`
## Output 9

## Input Value lookup for Ki; key = `O=C1NCCC12CCN(c1c(Cl)cncc1-c1cccc3c1oc1ccccc13)CC2`
## Output 16

## Input Value lookup for Ki; key = `Cn1ncc2cc(Nc3cncc(Cl)c3N3CCC4(CCNC4=O)CC3)ccc21`
## Output 670

1 = O=C1NCCC12CCN(c1c(Cl)cncc1-c1cnn(Cc3ccccc3)c1)CC2
2 = O=C1NCCC12CCN(c1c(Cl)cncc1-c1cn(S(=O)(=O)c3ccccc3)c3ncccc13)CC2
3 = Cc1ccc(-c2cncc(Cl)c2N2CCC3(CCNC3=O)CC2)c2ccccc12
## Input Form: Sort by [Ki] Order [ ascending ] Answer format: list of labels, ordered as asked.
## Output 3, 1, 2

###

# procedure text: Tmax in Sprague-Dawley rat at 5 mg/kg, iv measured up to 24 hrs by LC-MS/MS analysis
# Type: ADME, organism-based
# cond: in vivo
readout name: Tmax (min)
Entry rule: numbers only, all in min.

## Input Value lookup for Tmax; key = `Cn1cc(-c2ccc(-c3cncc(Cl)c3N3CCC4(CCNC4=O)CC3)cc2)cn1`
## Output 4.2

Now for the compound whose Tmax we want.
## Input Value lookup for Tmax; key = `O=C1NCCC12CCN(c1c(Cl)cncc1-c1cc3ccccc3o1)CC2`
## Output 2.4

###

# test target: Glycogen synthase kinase-3 alpha (Homo sapiens, UniProt P49840)
# Sequence (P49840 whole entry): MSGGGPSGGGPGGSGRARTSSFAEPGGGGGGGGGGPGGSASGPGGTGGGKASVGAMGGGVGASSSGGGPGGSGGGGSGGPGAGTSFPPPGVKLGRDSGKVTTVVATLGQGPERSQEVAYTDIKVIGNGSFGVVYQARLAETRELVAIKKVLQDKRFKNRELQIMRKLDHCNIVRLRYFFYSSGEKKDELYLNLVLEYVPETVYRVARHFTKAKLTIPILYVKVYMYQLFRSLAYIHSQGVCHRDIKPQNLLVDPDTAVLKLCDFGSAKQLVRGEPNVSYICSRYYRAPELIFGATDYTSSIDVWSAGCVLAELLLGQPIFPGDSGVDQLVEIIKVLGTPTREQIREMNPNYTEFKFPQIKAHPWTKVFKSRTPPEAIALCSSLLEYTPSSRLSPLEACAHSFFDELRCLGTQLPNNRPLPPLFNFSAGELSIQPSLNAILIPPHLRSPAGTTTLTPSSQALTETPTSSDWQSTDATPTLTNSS
# procedure text: Inhibition of human GSKalpha S449A mutant (2 to 3nd residues) using YRRAAVPPSPSLSRHSSPHQS(p) EDEEE as substrate incubated for 40 mins in presence of [gamma-33P]-ATP by scintillation counting method
Form field: Ki (one value per entry).
Entry rule: numbers only, all in nM.

## Input Value lookup for Ki; key = `Cn1cc(-c2ccc(-c3cncc(Cl)c3N3CCC4(CCNC4=O)CC3)cc2)cn1`
## Output 231

## Input Value lookup for Ki; key = `O=C1NCCC12CCN(c1c(Cl)cncc1-c1cc3ccccc3s1)CC2`
## Output 43

## Input Value lookup for Ki; key = `O=C1NCCC12CCN(c1c(Cl)cncc1-c1cc3ccccc3o1)CC2`
## Output 13

From: ChEMBL document CHEMBL4732199
